- assayedSystem: UBTD2; also: reference of the scale not given here
- assayOverview: pooled miR-30 sensor sort-seq; sequence = guide strand
- conditionSummary: shRNA
endpointName: sensor-assay potency score (higher = more potent)
// print number alone

# query: sensor-assay potency score (higher = more potent) of entry "TAACCTGTACAACATAGTCCTT"
-0.877

# query: sensor-assay potency score (higher = more potent) of entry "AAAACCACCGCTGACTACCTGG"
-0.559

# query: sensor-assay potency score (higher = more potent) of entry "TTCATAGGGAATTTAGAGCAGT"
-0.206

# query: sensor-assay potency score (higher = more potent) of entry "TACACTGGAAGCTGATATCTGT"
0.00464

# query: sensor-assay potency score (higher = more potent) of entry "TACAACATAGTCCTTTGGGATC"
-1.63

# query: sensor-assay potency score (higher = more potent) of entry "TATGTCGCTCTTTTCCTCTATC"
-0.749

# query: sensor-assay potency score (higher = more potent) of entry "TGGAATACTGTGTCTGTGCTGC"
-0.0459

# query: sensor-assay potency score (higher = more potent) of entry "TCGAACTTCATTTTGTCAGTGA"
0.607

Entry source: the OligoGym collection
